Reference for the values: PubChem BioAssay (NCI)

# Test system: SF-295 CNS
# assay_details: NCI tumour cell line growth inhibition, 48 h
property_measured: TGI

CCOc1cc(-c2nncn2C)ccc1Nc1ncc2cc(C)nc(NCC(C)(C)C)c2n1; > 100 µM
COc1ccc(Cc2cc(Cc3ccc(OC)cc3)cc(Cc3ccc(OC)cc3)c2)cc1; > 100 µM
c1ccc(C2=NN2c2ccccc2)cc1; > 100 µM

Inquiry: I'd like to know its TGI. The molecule in question is COC(=O)[C@]12CC[C@@H](C)[C@H](C)[C@@H]1C1=CC[C@@H]3[C@@]4(C)C(C=O)=C[C@@](C)(CO)[C@@H]4[C@H](O)C[C@@]3(C)[C@]1(C)CC2
Reply text: 16.5 µM

Inquiry: Entry under review: CCN(CC)C(=O)CCn1cc(F)c(=O)[nH]c1=O . Reported TGI?
Reply text: > 100 µM

Inquiry: What value of measured TGI is listed for CNC(=O)ON(C(C)=O)C(=O)NC ?
Reply text: 267 µM

Inquiry: What does the record list as TGI for COc1cccc(NC(=O)CSc2nnc(Cc3ccccc3)o2)c1 ?
Reply text: > 100 µM

Inquiry: What does the data say about its TGI? Entry: Cc1nc2sc(C(=O)Nc3cccc(Br)c3C)c(N)c2cc1C(O)c1ccccc1 (stereo not given)
Reply text: 6.64 µM

Inquiry: Would you kindly share the measured TGI for Cc1ccc2[nH]c3c(c(=O)n(C)c(=O)n3C)c2c1 ?
Reply text: > 100 µM

Inquiry: Report TGI for Nc1nc(SCC(=O)c2ccccc2)c2[nH]cnc2n1 please.
Reply text: > 100 µM

---

# Test system: LOX IMVI melanoma
# assay_details: NCI tumour cell line growth inhibition, 48 h; in the data active means GI50 below about 0.43 µM; inactive means the rest
Please reply with one of these outcomes: y = active, n = inactive

Some solved cases for reference:
C=CCn1c2ccccc2c2c3c(c4c5ccccc5n(CC=C)c4c21)C(=O)N(O)C3=O; n
CC(=O)[CH-]C(=O)c1ccccc1.CC(=O)[CH-]C(=O)c1ccccc1.Cl.[O-]c1ccnc2ccccc12.[O-]c1ccnc2ccccc12.[Ti+4]; n
COc1cc2c(cc1OC)C(C(CCCCCC(CCC(C)C)C1NCCc3cc(OC)c(OC)cc31)CCC(C)C)NCC2 (centres undefined); y

Here is another compound to look at.
Inquiry: So what was the verdict on Oc1ccc2c(=S)cc(-c3ccc(Br)cc3)oc2c1O in this test?
Reply text: n

---

# System: UACC-62 melanoma
# assay_details: NCI tumour cell line growth inhibition, 48 h; in the data active = GI50 below about 0.43 µM; inactive = the rest
Give your call using only these classes: true (1) = active, false (0) = inactive

Worked set:
O=C1/C(=C\c2ccc(F)cc2)CN(C(=O)c2ccccc2F)C/C1=C\c1ccc(F)cc1; false (0)
CC(=O)[CH-]C(=O)c1ccccc1.CC(=O)[CH-]C(=O)c1ccccc1.Cl.[O-]c1ccnc2ccccc12.[O-]c1ccnc2ccccc12.[Ti+4]; false (0)
O=C(Oc1ccccc1)N(c1ccccc1)c1ccccc1; false (0)
C=C1C(=O)O[C@H]2[C@H]1CC/C(COC(=O)c1cccnc1N)=C\CC[C@@]1(C)O[C@@H]21; false (0)
COc1cccc(Nc2ncnc3cc(NC(=O)CCl)ccc23)c1; false (0)

Inquiry: Status in this test for Cn1c(CCCC(=O)O)nc2cc(N(CCCl)CCCl)ccc21 ?
Reply text: false (0)

Inquiry: Please state the recorded outcome for this compound: Nc1[nH]nc2nc(-c3cc(Cl)ccc3Cl)cc(-c3ccc(F)cc3)c12
Reply text: false (0)

Inquiry: # outcome recorded in this test, key = COc1ccc(OC)c(Nc2nc3nonc3nc2Nc2cccc(Br)c2)c1
Reply text: true (1)

Inquiry: Fill in: this test's call for COc1ccc2c(c1)C(=Nc1ccc(F)c(Cl)c1)c1c-2c(Nc2ccc(F)c(Cl)c2)nc2ccccc12 is ___
Reply text: false (0)

---

Catalogue of TGI values
# Tested on: NCI-H460 lung
# assay_details: NCI tumour cell line growth inhibition, 48 h

Before answering, review these 3 worked examples.
C/C(=N\NC(=O)c1ccncc1)c1sc(-n2nc(-c3ccccc3)cc2-c2ccccc2)nc1C; > 31.6 µM
CCN1CCN(c2nc(C)cc(NCc3cc(Nc4ccnc5cc(Cl)ccc45)ccc3F)n2)CC1; 3.67 µM
CC1(C)OCC(CO)(CO)CO1; > 100 µM

Inquiry: Which measured TGI belongs to CN(C)[C@@H]1C(=O)C(C(=O)NCNc2nc3n[nH]nc3c(=O)[nH]2)=C(O)[C@@]2(O)C(=O)C3=C(O)c4c(O)cccc4[C@@](C)(O)[C@H]3C[C@@H]12 , tested on NCI-H460 lung?
Reply text: > 97.1 µM

Inquiry: Field: TGI (NCI-H460 lung). Entry: CN1CCN(c2cc3nc(-c4ccc(Cl)cc4)[nH]c3cc2F)CC1
Reply text: > 53.9 µM

Inquiry: Reported TGI for NCI-H460 lung, given O=C(Nc1ccncc1)C(=O)c1cn(S(=O)(=O)c2cccc(Cl)c2)c2ccccc12 ?
Reply text: > 100 µM

Inquiry: Return TGI measured with NCI-H460 lung given this compound: CCN(CC)C(=O)CCn1cc(F)c(=O)[nH]c1=O
Reply text: > 100 µM

Inquiry: Give NCI-H460 lung TGI for Clc1sc(Cl)c2c1[C@H](Cl)C[C@@H]2Cl
Reply text: > 100 µM

---

# Tested on: HS 578T breast
# assay_details: NCI tumour cell line growth inhibition, 48 h
property_measured: GI50

Check out these entries, answers already filled in.
CCN1CCN(c2nc(C)cc(NCc3cc(Nc4ccnc5cc(Cl)ccc45)ccc3F)n2)CC1; 1.72 µM
CNC(=O)ON(C(C)=O)C(=O)NC; 49.9 µM

Okay, now this compound:
Inquiry: Quick one: GI50 of O=C(Nc1ccncc1)C(=O)c1cn(S(=O)(=O)c2cccc(Cl)c2)c2ccccc12 ?
Reply text: 77.1 µM

---

# Test system: HCT-116 colon
# assay_details: NCI tumour cell line growth inhibition, 48 h
Item-by-item account of TGI

Here are 2 molecules together with their reported answers.
CN(C)NC(=O)/C(=C/c1ccc(Cl)cc1)NC(=O)c1ccccc1; > 100 µM
CCN(CC)CCNc1ccc2ncn3c4ccc(OC)cc4c(=O)c1c23; 13.5 µM

Inquiry: What does the data say about its TGI? Entry: C[C@@H]1S[C@H](c2c(F)cccc2Cl)n2c1nc1ccccc12
Reply text: 16.5 µM

Inquiry: TGI lookup needed for C#C[C@@]1(O)[C@@H](CO)O[C@@H](n2cc(Br)c3c(Cl)ccnc32)[C@@H]1O , thanks.
Reply text: > 100 µM

Inquiry: I would be grateful if you could share the reported TGI for N=c1oc2ccccc2cc1C(=O)Nc1cccc2ccccc12 .
Reply text: > 100 µM

Inquiry: So what's the measured TGI for this one? COC(=O)c1c[nH]c2cc(OC(C)C)c(OC(C)C)cc2c1=O
Reply text: > 100 µM

Inquiry: Give the measured TGI of Cc1sc(C(=O)c2cncnc2N[C@@H]2C[C@H](COS(N)(=O)=O)[C@@H](O)C2)cc1[C@@H]1NCCc2ccc(Cl)cc21 .
Reply text: 22.6 µM

Inquiry: Could you tell me which TGI is on file for COc1ccc(Oc2nc3cc(N)cc(N)c3nc2-c2ccccc2)cc1 ?
Reply text: 75.1 µM

Inquiry: Please look up its TGI: Cn1c(=O)c2ccccc2[n+]2c(-c3cccc([N+](=O)[O-])c3)csc12
Reply text: > 100 µM

Inquiry: Tell me the measured TGI of CC(=O)OCC1OC(n2cccnc2=O)C(OC(C)=O)C1OC(C)=O (stereo not given) , please.
Reply text: > 100 µM

---

# Tested on: SNB-19 CNS
# assay_details: NCI tumour cell line growth inhibition, 48 h
property_measured: GI50

COC(=O)[C@H](Cc1cn(C)cn1)NC(=O)[C@H](CC(=O)OCc1ccccc1)NC(=O)Nc1cc(C(F)(F)F)cc(C(F)(F)F)c1; 13800 nM

Inquiry: Param item = Cn1ncc(C#N)c1-c1ccc2c(c1)CN([C@H](CN)Cc1cccc(F)c1)C2=O ; retrieve measured GI50.
Reply text: 1150 nM

Inquiry: Any idea what its GI50 is? The compound is COC(=O)C1C(C(=O)O)C2(c3ccccc3)C(=O)C1(c1ccccc1)C(c1ccccc1)=C2c1ccccc1 (centres undefined)
Reply text: 11700 nM

Inquiry: Returns the measured GI50 for the input compound. Input: O=S(=O)(NC1=NCCN1C(=S)SN1CCn2c1nsc2=S)c1ccc(Oc2ccccc2)cc1
Reply text: > 100000 nM

Inquiry: Which GI50 reading was recorded for the compound Oc1ccc2c(=S)cc(-c3ccc(Br)cc3)oc2c1O ?
Reply text: 2950 nM

Inquiry: Value lookup for GI50; key = CN1CCN(CCCNC(=O)c2c3c(n4ccccc24)C(=O)c2ncccc2C3=O)CC1
Reply text: 1350 nM

---

Overview of recorded TGI for various compounds
# Tested on: U251 CNS
# assay_details: NCI tumour cell line growth inhibition, 48 h

Worked cases, TGI given:
COC(=O)c1c[nH]c2cc(OC(C)C)c(OC(C)C)cc2c1=O; > 100 µM
CC[C@@H](C)/C=C(C)/C=C/C(=O)c1c(O)c(-c2ccc(OC(=O)[C@@]34CC[C@@](C)(C(=O)O3)C4(C)C)cc2)cn(O)c1=O; > 50 µM
ICC1CCCO1 (centres undefined); > 100 µM

Inquiry: Quick check: TGI of CCCCCCCCOC(=O)C12Oc3ccc(-c4ccc5c(c4O)C(O)=C4C(=O)CC(C)C(O)C4(C(=O)OCCCCCCCC)O5)c(O)c3C(O)=C1C(=O)CC(C)C2O (centres undefined) ?
Reply text: 27.5 µM
